Where these numbers come from: patent US20250152746A1

Overview of reported Cyno Primary Hepatocyte Editing % 100 across a group of molecules:
- Test system: PCSK9 gene
- measurement.notes: PCSK9 gRNA/SpCas9 editing in primary cynomolgus hepatocytes (Tables 2, 22)
- Assay type: cell-based, cynomolgus monkey
- condition.description: 100 ng/RNA/mL; SpCas9 mRNA MS002 1:1 by weight
m = 2'-O-methyl; r = 2'-OH (RNA)
A number alone suffices; assume %.

Problem: For the molecule shown here, GA222: PCSK9 gRNA; protospacer TGGCAGGGGTGGTCAGCGGC (SEQ ID NO: 216) (nucleic acid, sugars from the 5' end m3 r94 m3, linkages s3 o93 s3 (s phosphorothioate, o phosphodiester), T or U not given here) guide: UGGCAGGGGUGGUCAGCGGCGUUUUAGAGCUAGAAAUAGCAAGUUAAAAUAAGGCUAGUCCGUUAUCAACUUGAAAAAGUGGCACCGAGUCGGUGCUUUU , give the reported Cyno Primary Hepatocyte Editing % 100.
Result: 0.88
